assay: qHTS assay for identifying genotoxic compounds that show differential cytotoxicity against isogenic chicken DT40 cell lines with known DNA damage response pathways - wild type cell line (AID 743012); details: DT40 wild type chicken cells viability, CellTiter-Glo, 40 h; series mostly up to 68.4 µM; note: nearly all actives have a fitted effect of over 60% in size
Results filed as inconclusive are left out. The source made the active and inactive calls. Calls come from the whole dose curve; as a rule, active = well fitted cell-killing curve with a large enough effect in the repeat runs; inconclusive = weak or mixed curves, or effect the other way; inactive = no such curve, though single readings can be large or run the other way.
Would you mind answering with one of these outcomes? active, inactive

> print(dat)
                                   compound     class
1       Cc1[nH]c(=O)c(C#N)cc1-c1ccc2nccn2c1  inactive
2                               COCCCOCCCOC  inactive
3                         O=C1CCCN1C1CCCCC1  inactive
4  CC(C)NCC(O)c1ccc(NS(C)(=O)=O)cc1 (stereo not given)  inactive

Outcome? N#Cc1ccc(C2CCCc3cncn32)cc1 (stereo not given)
inactive

Outcome? CCN(Cc1ccncc1)C(=O)C(CO)c1ccccc1 (stereo not given)
inactive

Outcome? Cc1nc2c([nH]1)c(=O)n(C)c(=O)n2Cc1ccco1
inactive

Outcome? CN(C)CCCNCCCN(C)C
inactive

Outcome? CCCCC(CC)COC(=O)c1ccccc1O (stereo not given)
inactive

====

target: Aromatase (Homo sapiens); assay: qHTS assay to identify aromatase inhibitors (AID 743083); settings: MCF-7 aro ERE, testosterone-driven ERE luciferase, 24 h; series mostly up to 70.3 µM; note: % is set by controls: 0 for no effect and ±100 for the full control effect; nearly all actives have a fitted effect of over 55% in size
Inconclusive results are not listed. Calls of active or inactive are those of the source. Calls come from the whole dose curve; as a rule, active = well fitted inhibition curve with a large enough effect in the repeat runs; inconclusive = weak or mixed curves; inactive = no such curve, though single readings can be large or run the other way.
Would you mind answering with one of these outcomes? active, inactive

Outcome? O=C1OC(=O)C2CCCCC12 (centres undefined)
inactive

Outcome? CC(=O)N(CC(O)CO)c1c(I)c(C(=O)NCCO)c(I)c(C(=O)NCC(O)CO)c1I (centres undefined)
inactive

Outcome? CC(C)(C)c1nnc(NS(=O)(=O)c2ccccc2)s1
inactive

====

test: qHTS assay for identifying genotoxic compounds that show differential cytotoxicity against isogenic chicken DT40 cell lines with known DNA damage response pathways - wild type cell line (AID 743012); conditions: DT40 wild type chicken cells viability, CellTiter-Glo, 40 h; series mostly up to 68.4 µM; note: nearly all actives have a fitted effect of over 60% in size
Inconclusive results are not listed. Active and inactive are the calls of the source. Calls come from the whole dose curve; as a rule, active = well fitted cell-killing curve with a large enough effect in the repeat runs; inconclusive = weak or mixed curves, or effect the other way; inactive = no such curve, though single readings can be large or run the other way.
Would you mind answering with one of these outcomes? active, inactive

Outcome? C=C[Si](OC(=C)C)(OC(=C)C)OC(=C)C
inactive

Outcome? CCOC(=O)[C@H](CCc1ccccc1)N[C@@H](C)C(=O)N1[C@H](C(=O)O)C[C@@H]2CCC[C@@H]21
inactive

Outcome? CC(C)=CCCC(C)CC(=O)O (stereo not given)
inactive

Outcome? CN(C)CCCSc1ccccc1NC(=O)/C=C/c1ccccc1
active

Outcome? O=C[C@H](O)[C@@H](O)[C@H](O)[C@H](O)CO
inactive

====

Target: Voltage-gated inwardly rectifying potassium channel KCNH2 (Homo sapiens)
Experiment: Human Ether-a-go-go-Related Gene (hERG) channel small molecule antagonists: fluorescence cell-based qHTS assay (AID 1671200);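 note: hERG-expressing U2OS cells given a thallium stimulus after FluxOR II dye loading; % is set by controls: 0 for no effect and ±100 for the full control effect; nearly all actives have a fitted effect of over 50% in size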
Details: hERG-U2OS cells, FluxOR thallium flux fluorescence; series mostly up to 76.8 µM
Source text: National Center for Advancing Translational Sciences [NCATS] U.S. Environmental Protection Agency [EPA] National Institutes of Environmental Health Sciences [NIEHS] National Toxicology Program [NTP] U.S. Food and Drug Administration [FDA] Mutations in the hERG channel cause Long QT (LQT) syndrome. LQT syndrome is a cardiac disorder which can cause ventricle arrhythmia and sudden death. Additionally, compounds which block the hERG channel can cause acquired LQT syndrome. […]
Results filed as inconclusive are left out. Activity calls are given as the source filed them. Calls follow the shape of the dose curve; as a rule, active = well fitted inhibition curve with a large enough effect in the repeat runs; inconclusive = weak or mixed curves; inactive = flat fitted curve, though single readings scatter.
VALUE_TYPE: activity change, negative = inhibition

> print(dat)
                                   compound  readout.value
1      c1cnc(N2CCN(Cc3ccc4c(c3)OCO4)CC2)nc1       inactive
2                       CCCCCCCCS(=O)(=O)Cl       inactive
3  CC(C(=O)O)c1ccc(CC2CCCC2=O)cc1 (stereo not given)       inactive
4                    CC(=O)CC(C)(C)C1CCCCC1       inactive

Attention now shifts to the item below.
In plain terms, c1ccc(CC2=NCCN2)cc1 has a documented activity change, negative = inhibition of inactive

====

molecular target: Glucocorticoid receptor (Homo sapiens) (UniProt P04150); assay: qHTS assay to identify small molecule agonists of the glucocorticoid receptor (GR) signaling pathway (AID 720691); details: GR-bla HeLa, beta-lactamase reporter ratio, 18 h; series mostly up to 62.4 µM; note: % is set by controls: 0 for no effect and ±100 for the full control effect
Sequence (P04150 whole entry, looked up): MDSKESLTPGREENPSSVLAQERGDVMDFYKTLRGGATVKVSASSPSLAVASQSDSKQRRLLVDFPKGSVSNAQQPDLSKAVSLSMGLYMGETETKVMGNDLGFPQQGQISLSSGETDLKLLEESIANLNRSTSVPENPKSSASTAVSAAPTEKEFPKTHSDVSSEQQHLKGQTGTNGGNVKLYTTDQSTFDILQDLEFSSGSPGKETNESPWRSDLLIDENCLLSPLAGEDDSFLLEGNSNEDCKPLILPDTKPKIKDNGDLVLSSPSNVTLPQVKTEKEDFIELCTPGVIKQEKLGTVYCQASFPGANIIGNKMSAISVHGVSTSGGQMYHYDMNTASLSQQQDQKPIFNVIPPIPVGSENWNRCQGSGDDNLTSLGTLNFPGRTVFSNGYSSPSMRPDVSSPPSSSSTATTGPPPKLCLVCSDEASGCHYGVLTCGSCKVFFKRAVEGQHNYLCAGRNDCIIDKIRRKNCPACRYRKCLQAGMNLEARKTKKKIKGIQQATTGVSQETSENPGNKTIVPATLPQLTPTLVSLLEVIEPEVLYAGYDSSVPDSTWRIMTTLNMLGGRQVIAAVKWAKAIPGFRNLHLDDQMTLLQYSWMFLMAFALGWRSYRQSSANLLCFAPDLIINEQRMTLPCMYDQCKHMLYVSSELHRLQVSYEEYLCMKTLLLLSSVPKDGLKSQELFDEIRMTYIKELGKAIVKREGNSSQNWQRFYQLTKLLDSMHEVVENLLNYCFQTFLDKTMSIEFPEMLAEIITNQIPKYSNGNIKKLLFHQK
Inconclusive results are not listed. Activity calls are given as the source filed them. The call rests on the fitted dose curve; in most records, active means well fitted activation curve with a large enough effect in the signal ratio in the repeat runs (not every such curve was filed as active); inconclusive means weak or mixed curves, or effect the other way; inactive means no such curve, though single readings can be large or run the other way; the % refers to the signal ratio.
Would you mind answering with one of these outcomes? active, inactive

Worked cases, answers included:
> print(dat)
                                   molecule     class
1  NS(=O)(=O)c1cc2c(cc1Cl)NC(C1CC3C=CC1C3)NS2(=O)=O (centres undefined)  inactive
2      CN(C)CCCSc1ccccc1NC(=O)/C=C/c1ccccc1  inactive

Outcome? NC(=O)COCCN1CCN(C(c2ccccc2)c2ccc(Cl)cc2)CC1 (centres undefined)
inactive

Outcome? O=C(CCCN1CCC(O)(c2cccc(C(F)(F)F)c2)CC1)c1ccc(F)cc1
inactive

====

Overview of reported max response across a group of compounds:
Test: qHTS RealTime-Glo MT Cell Viability Assay in HEK293 cells - 40 hour (AID 1224874); note: % is set by controls: 0 for no effect and ±100 for the full control effect; nearly all actives have a fitted effect of over 50% in size
Conditions: RealTime-Glo luminescence; hits give low values
From the text: U.S. Tox21 Program National Center for Advancing Translational Sciences [NCATS] NIH Chemical Genomics Center [NCGC] U.S. Environmental Protection Agency [EPA] National Institutes of Environmental Health Sciences [NIEHS] National Toxicology Program [NTP] U.S. Food and Drug Administration [FDA] Tox21 Assay Overview: Measure of cell viability is critical in the cell-base assay. Analysis of cell viability is necessary for the characterization of cell responses to cytotoxic drugs and environmental stress. […]
Results filed as inconclusive are left out.
// note: answer is a bare numeric in %

In plain terms, NCCCNCCSP(=O)(O)O has a documented max response of 3.52

In plain terms, CCOc1ccc(C(=O)OCCN(CC)CC)cc1 has a documented max response of 4.37

In plain terms, CC(C)=CCCC(C)CC(=O)O (stereo not drawn) has a documented max response of 2.41

In plain terms, COC(=O)c1c(Cl)c(Cl)c(C(=O)OC)c(Cl)c1Cl has a documented max response of -27.2

In plain terms, C[C@H]1C[C@@H](O)CC(C)(C)C1 has a documented max response of -10.6

In plain terms, COCCCOCCCOC has a documented max response of 6.62

In plain terms, C=CCCCCCCCCC=O has a documented max response of -1.95

In plain terms, Cc1c(NC(C)C)c(=O)n(-c2ccccc2)n1C has a documented max response of 2.55

====

target: Cytochrome P450 2D6 (Homo sapiens) (UniProt P10635); experiment: Cytochrome P450 Family 2 Subfamily D Member 6 (CYP2D6) small molecule antagonists: luciferase reporter qHTS assay (AID 1671196); conditions: P450-Glo CYP2D6 enzyme assay, luciferin luminescence, 1 h; series mostly up to 115 µM; note: nearly all actives have a fitted effect of over 50% in size
Sequence (P10635 whole entry, looked up): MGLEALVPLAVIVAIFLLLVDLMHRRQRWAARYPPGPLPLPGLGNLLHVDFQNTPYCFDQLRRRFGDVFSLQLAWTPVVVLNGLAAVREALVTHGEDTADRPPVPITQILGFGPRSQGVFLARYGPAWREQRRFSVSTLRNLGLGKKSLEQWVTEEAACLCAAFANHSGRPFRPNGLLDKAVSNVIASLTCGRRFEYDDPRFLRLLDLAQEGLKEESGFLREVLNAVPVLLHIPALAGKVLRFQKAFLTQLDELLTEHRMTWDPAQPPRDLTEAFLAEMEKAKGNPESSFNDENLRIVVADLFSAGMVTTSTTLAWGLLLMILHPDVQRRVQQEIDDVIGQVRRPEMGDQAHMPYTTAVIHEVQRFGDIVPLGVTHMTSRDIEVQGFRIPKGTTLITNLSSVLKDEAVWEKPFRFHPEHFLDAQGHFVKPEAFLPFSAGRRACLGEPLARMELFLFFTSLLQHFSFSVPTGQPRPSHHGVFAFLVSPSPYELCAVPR
Records with an inconclusive call do not appear. Activity calls are given as the source filed them. The call rests on the fitted dose curve; in most records, active means well fitted inhibition curve with a large enough effect in the repeat runs; inconclusive means weak or mixed curves; inactive means no such curve, though single readings can be large or run the other way.
Would you mind answering with one of these outcomes? active, inactive

Worked cases, answers included:
> print(dat)
                                   compound     class
1         COc1cc(C(=O)N2CCCCCCC2)cc(OC)c1OC  inactive
2                   CCSC(=O)N(CC(C)C)CC(C)C  inactive
3      c1cnc(N2CCN(Cc3ccc4c(c3)OCO4)CC2)nc1    active
4     N=C(N)c1ccc(OCCCOc2ccc(C(=N)N)cc2)cc1  inactive
5                    CC(C)(C)c1ccc(O)c(O)c1    active
6  CCCC(=O)O[C@]1(C(=O)CO)CC[C@H]2[C@@H]3CCC4=CC(=O)CC[C@]4(C)[C@H]3[C@@H](O)C[C@@]21C  inactive

Outcome? CN(C)CCCSc1ccccc1NC(=O)/C=C/c1ccccc1
active

Outcome? CCCCCCCCCCCCCC=O
active

Outcome? CN(C(=O)c1c(O)c2ccccc2n(C)c1=O)c1ccccc1
inactive

Outcome? CC(C)=CCCC(C)CC(=O)O (stereo unspecified)
inactive

Outcome? C=C(C)CS(=O)(=O)O
inactive

====

assay: qHTS assay for identifying genotoxic compounds that show differential cytotoxicity against isogenic chicken DT40 cell lines with known DNA damage response pathways - wild type cell line (AID 743012); conditions: DT40 wild type chicken cells viability, CellTiter-Glo, 40 h; series mostly up to 68.4 µM; note: nearly all actives have a fitted effect of over 60% in size
Inconclusive results are not listed. Calls of active or inactive are those of the source. Calls come from the whole dose curve; as a rule, active = well fitted cell-killing curve with a large enough effect in the repeat runs; inconclusive = weak or mixed curves, or effect the other way; inactive = no such curve, though single readings can be large or run the other way.
Would you mind answering with one of these outcomes? yes (1) = active, no (0) = inactive

Worked cases, answers included:
> print(dat)
                                   compound    class
1         COc1cc(C(=O)N2CCCCCCC2)cc(OC)c1OC  yes (1)
2                     CC(C)(O)C(=O)c1ccccc1   no (0)
3  O=C(O)Cc1ccc(CCNS(=O)(=O)c2ccc(Cl)cc2)cc1   no (0)
4  CC(=O)OCC(=O)[C@@]1(O)CCC2C3CCC4=CC(=O)CC[C@]4(C)C3[C@@H](O)C[C@@]21C (stereo partly specified)   no (0)
5                      NS(=O)(=O)c1ccccc1Cl   no (0)

Outcome? Cc1c(NC(C)C)c(=O)n(-c2ccccc2)n1C
no (0)

Outcome? C[C@H]1C[C@@H](O)CC(C)(C)C1
no (0)

Outcome? Brc1c(NC2=NCCN2)ccc2nccnc12
no (0)

Outcome? NS(=O)(=O)c1cc2c(cc1Cl)NC(C1CC3C=CC1C3)NS2(=O)=O (stereo unspecified)
no (0)

Outcome? Cn1c(N)c(N=O)c(=O)n(C)c1=O
no (0)

Outcome? Cc1ccc(C#N)cc1
no (0)

Outcome? Cc1c(O)cccc1O
no (0)

Outcome? O=c1cc(-c2ccccc2)oc2ccccc12
yes (1)
